measurementLabel: logP

Worked cases, answers included:
compound	logP
CCC(C)N1C(=O)C(=O)c2ccccc2C1=O (configuration not stated)	2.15
CCN1C(=O)C(=O)c2c(Cl)cccc2C1=O	1.43
CCOC(=O)c1cccc2c1C(=O)C(=O)N(CC)C2=O	1.31
CCN1C(=O)C(=O)c2ccccc2C1=O	1.13
CCN1C(=O)C(=O)c2c(OC)cccc2C1=O	0.9
CCN(CC)C(=O)c1cccc2c1C(=O)C(=O)N(CC)C2=O	0.78

I. CCN1C(=O)C(=O)c2cccc(OC)c2C1=O
II. CCN1C(=O)C(=O)c2ccc(Cl)cc2C1=O
III. CCN1C(=O)C(=O)c2c(C(N)=O)cccc2C1=O
q: // sort entries: logP, high to low Order the labels as requested and list them.
a: II, I, III
(II: 1.79, I: 0.94, III: -0.5)

1. CCN1C(=O)C(=O)c2c(cccc2[N+](=O)[O-])C1=O
2. CC(C)N1C(=O)C(=O)c2ccccc2C1=O
3. CCN1C(=O)C(=O)c2c(C#N)cccc2C1=O
4. CCN1C(=O)C(=O)c2cc3ccccc3cc2C1=O
q: // sort entries: logP, high to low Order the labels as requested and list them.
a: 4, 2, 1, 3

1. CN1C(=O)C(=O)c2ccccc2C1=O
2. CCN1C(=O)C(=O)c2ccc(OC)cc2C1=O
3. CCNC(=O)c1cccc2c1C(=O)C(=O)N(CC)C2=O
4. CCCCN1C(=O)C(=O)c2ccccc2C1=O
q: // sort entries: logP, high to low Order the labels as requested and list them.
a: 4, 2, 1, 3
(4: 2.18, 2: 1.49, 1: 0.6, 3: 0.3)

1. CC(C)CN1C(=O)C(=O)c2ccccc2C1=O
2. CCN1C(=O)C(=O)c2c(OC)cc(OC)cc2C1=O
q: // pick larger logP from pair: 1 vs 2 # respond with the chosen item's label
a: 1

###

measurementLabel: logP

smi	logP
CCCN1C(=O)C(=O)c2ccccc2C1=O	1.6
CCN1C(=O)C(=O)c2cc(OC)c(OC)cc2C1=O	1.31
O=C1C(=O)N(c2ccccc2)C(=O)c2ccccc21	1.14

Origin of values: the SangsterLogP compilation
